All values here come from the RNAGym collection of RNA variant scans (doi:10.1126/science.aae0568).

B1: tRNA (parent)
chain: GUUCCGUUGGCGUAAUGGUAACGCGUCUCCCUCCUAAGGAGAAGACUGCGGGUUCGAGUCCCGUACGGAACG

- Variants of: B1
- Protocol Description: yeast fitness relative to wild type (ratio to wild type); higher = fitter; tRNA-Arg(CCU), competitive growth, 37 C, YPD
Variants at the floor of the assay were thinned out.
Endpoint Label: yeast fitness

Indicate its recorded yeast fitness; the variant in question is A14G C34G A43C C62A C66A ≤ 0.5

For the variant C11U U16A C22A C24G A45U U47A , give its measured yeast fitness value. ≤ 0.5

Input C5A C22A A36U A40U , output reported yeast fitness. ≤ 0.5

Read off the recorded yeast fitness for A15G A21C U54G A65U ≤ 0.5

Tell me yeast fitness reported for C33U A43U C49A G50C C61U C66U ≤ 0.5
